tested on: CEM (human lymphoblastoid) cells; assay: Cytotoxicity assay in CEM cells; assay type: cell-based; conditions: Table 2, read-out: Cytotoxicity in different cells (IC50, μM) CEM
measurement.name: IC50
Please provide the amount together with its unit, number first.

Some molecules with recorded IC50:
QUERY: Looking for the measured IC50 of `O=C(Nc1nc(=O)n([C@H]2C=C[C@@H](CO)O2)cc1F)c1cccc(Cl)c1` , can you help?
RESULT: 11.2 µM

QUERY: Reported IC50, molecule `Cc1ccccc1C(=O)Nc1nc(=O)n([C@H]2C=C[C@@H](CO)O2)cc1F` : ____
RESULT: 46.4 µM

QUERY: Which value of IC50 has been reported for `COc1ccccc1C(=O)Nc1nc(=O)n([C@H]2C=C[C@@H](CO)O2)cc1F` in the records?
RESULT: 3.9 µM

---
QUERY: Which IC50 value is on record for `CC(C)(C)c1ccc(C(=O)Nc2nc(=O)n([C@H]3C=C[C@@H](CO)O3)cc2F)cc1` ?
RESULT: 9.9 µM

From: patent US7105527B2
